# Read-out: E-selectin (Homo sapiens) (UniProt P16581)
# Sequence (P16581 whole entry, looked up): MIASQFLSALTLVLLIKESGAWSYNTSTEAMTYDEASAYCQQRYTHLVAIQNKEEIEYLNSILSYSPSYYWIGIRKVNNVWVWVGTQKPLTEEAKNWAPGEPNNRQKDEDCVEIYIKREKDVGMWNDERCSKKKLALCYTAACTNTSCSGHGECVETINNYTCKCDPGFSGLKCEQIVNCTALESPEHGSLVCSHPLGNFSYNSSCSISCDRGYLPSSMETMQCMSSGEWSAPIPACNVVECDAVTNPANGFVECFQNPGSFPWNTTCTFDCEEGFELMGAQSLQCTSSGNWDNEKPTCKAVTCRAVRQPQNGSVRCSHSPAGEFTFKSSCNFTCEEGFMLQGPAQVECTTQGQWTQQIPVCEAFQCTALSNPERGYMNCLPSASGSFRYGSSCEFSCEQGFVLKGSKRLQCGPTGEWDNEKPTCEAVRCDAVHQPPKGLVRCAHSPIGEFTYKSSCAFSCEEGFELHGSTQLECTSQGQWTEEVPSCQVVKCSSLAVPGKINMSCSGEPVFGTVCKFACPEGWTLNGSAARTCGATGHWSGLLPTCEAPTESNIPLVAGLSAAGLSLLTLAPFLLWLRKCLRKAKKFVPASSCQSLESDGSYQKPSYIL
# protocol: BSK_LPS_Eselectin: BioMAP Diversity Plus: LPS Assay for Eselectin Biomarker Activity (AID 2283077)
# condition notes: primary human HUVEC with PBMC; actives raise or lower the signal
Activity calls are given as the source filed them. The calls were made as follows: active = hit-call score of the fitted dose curve at least 0.9, where 1 is the maximum; inactive = score below 0.9.
Write down the outcome that applies. Available outcomes: True (active), False (inactive)

Lookup: Could you kindly confirm the outcome this assay logged for COc1ccccc1N ?
Found: False

Lookup: Could you please tell me the result logged for Cc1cc(Cl)ccc1OC(C)C(=O)O (stereo not drawn) in this assay?
Found: False

Lookup: Answer briefly: the call reported for Oc1c(Br)cc(Br)cc1Br in this assay.
Found: False

Lookup: Hi team, can someone confirm the assay call for Oc1ccc(Cc2ccc(O)cc2)cc1 ?
Found: False

Lookup: What is the recorded call for this molecule in the test? C#CCOC(=O)/C=C(C)/C=C/CC(C)CCCC(C)C (stereo not drawn)
Found: True

Lookup: Check the results log: what was the call for Clc1cccc(Cl)c1Cl ?
Found: False

Lookup: Please share the test call associated with O=C(Cc1ccccc1)OCCc1ccccc1 .
Found: False

Lookup: // return assay outcome for Cc1cc(C(C)(C)c2ccc(O)c(C)c2)ccc1O
Found: False

Lookup: So what was the verdict on Cc1ccccc1OP(=O)(Oc1ccccc1)Oc1ccccc1 in this test?
Found: True

Lookup: Please let me know the test result on file for c1ccc2sc(SNC3CCCCC3)nc2c1 .
Found: False

Lookup: What is the recorded call for this molecule in the test? CC1(C)[C@H](C(=O)O[C@H](C#N)c2cccc(Oc3ccccc3)c2)[C@@H]1/C=C(\Cl)C(F)(F)F
Found: False
